test-protocol: Pharmacokinetics of caspofungin during continuous venovenous hemodiafiltration (CVVHD)
Assay type: in vivo, human
protocol-conditions: human, in vivo, iv, patient 4; 1 h after infusion ended; steady state, CVVHD; HPLC; read-out: Arterial caspofungin concentration
observable: level at 1 h (ng/mL)
One number for each entry, in ng/mL.

stdin: Determine its reported level at 1 h: CC[C@H](C)C[C@H](C)CCCCCCCCC(=O)N[C@H]1C[C@@H](O)[C@@H](NCCN)NC(=O)[C@@H]2[C@@H](O)CCN2C(=O)[C@H]([C@H](O)CCN)NC(=O)[C@H]([C@H](O)[C@@H](O)c2ccc(O)cc2)NC(=O)[C@@H]2C[C@@H](O)CN2C(=O)[C@H]([C@@H](C)O)NC1=O
stdout: 2800

---

test-protocol: Pharmacokinetics of caspofungin during continuous venovenous hemodiafiltration (CVVHD)
Format: in vivo, human
protocol-conditions: human, in vivo, iv, patient 2; 8 h after infusion ended; steady state, CVVHD; HPLC; read-out: Arterial caspofungin concentration
observable: level at 8 h (ng/mL)
One number for each entry, in ng/mL.

stdin: Determine its reported level at 8 h: CC[C@H](C)C[C@H](C)CCCCCCCCC(=O)N[C@H]1C[C@@H](O)[C@@H](NCCN)NC(=O)[C@@H]2[C@@H](O)CCN2C(=O)[C@H]([C@H](O)CCN)NC(=O)[C@H]([C@H](O)[C@@H](O)c2ccc(O)cc2)NC(=O)[C@@H]2C[C@@H](O)CN2C(=O)[C@H]([C@@H](C)O)NC1=O
stdout: 3400

---

test-protocol: Pharmacokinetics of caspofungin during continuous venovenous hemodiafiltration (CVVHD)
Type: in vivo, human
protocol-conditions: human, in vivo, iv, patient 4; 24 h after infusion ended; steady state, CVVHD; HPLC; read-out: Arterial caspofungin concentration
observable: level at 24 h (ng/mL)
One number for each entry, in ng/mL.

stdin: Determine its reported level at 24 h: CC[C@H](C)C[C@H](C)CCCCCCCCC(=O)N[C@H]1C[C@@H](O)[C@@H](NCCN)NC(=O)[C@@H]2[C@@H](O)CCN2C(=O)[C@H]([C@H](O)CCN)NC(=O)[C@H]([C@H](O)[C@@H](O)c2ccc(O)cc2)NC(=O)[C@@H]2C[C@@H](O)CN2C(=O)[C@H]([C@@H](C)O)NC1=O
stdout: 1340

---

test-protocol: Pharmacokinetics of caspofungin during continuous venovenous hemodiafiltration (CVVHD)
Format: in vivo, human
protocol-conditions: human, in vivo, iv, patient 7; 24 h after infusion ended; steady state, CVVHD; HPLC; read-out: Arterial caspofungin concentration
observable: level at 24 h (µg/mL)
Numbers only, in µg/mL.

stdin: Determine its reported level at 24 h: CC[C@H](C)C[C@H](C)CCCCCCCCC(=O)N[C@H]1C[C@@H](O)[C@@H](NCCN)NC(=O)[C@@H]2[C@@H](O)CCN2C(=O)[C@H]([C@H](O)CCN)NC(=O)[C@H]([C@H](O)[C@@H](O)c2ccc(O)cc2)NC(=O)[C@@H]2C[C@@H](O)CN2C(=O)[C@H]([C@@H](C)O)NC1=O
stdout: 1.63

---

test-protocol: Pharmacokinetics of caspofungin during continuous venovenous hemodiafiltration (CVVHD)
Format: in vivo, human
protocol-conditions: human, in vivo, iv, patient 1; 0.5 h after infusion ended; steady state, CVVHD; HPLC; read-out: Arterial caspofungin concentration
Description: The aim of the present study was to describe the pharmacokinetics of caspofungin in 12 critically ill adult patients with suspected or proven invasive candidiasis who were receiving continuous venovenous hemodiafiltration (CVVHD). CVVHD was performed using a polysulfone hemofilter (Fresenius, Germany). Caspofungin was administered at usual doses. […]
observable: level at 0.5 h (ng/mL)
Give bare numbers, in ng/mL.

stdin: Determine its reported level at 0.5 h: CC[C@H](C)C[C@H](C)CCCCCCCCC(=O)N[C@H]1C[C@@H](O)[C@@H](NCCN)NC(=O)[C@@H]2[C@@H](O)CCN2C(=O)[C@H]([C@H](O)CCN)NC(=O)[C@H]([C@H](O)[C@@H](O)c2ccc(O)cc2)NC(=O)[C@@H]2C[C@@H](O)CN2C(=O)[C@H]([C@@H](C)O)NC1=O [caspofungin]
stdout: 10800

Where do the numbers come from? From paper PMC5278571.
